- Test system: E13 (patient-derived glioblastoma stem cells of classical subtype)
- Test description: phenotypic distance (Euclidean, principal components) from DMSO controls (arbitrary units); higher = stronger morphological change
- Condition summary: 4.1 nM; exposure time: 72 h
Where a name gives a salt, the structure may show the parent alone.
Measured property: phenotypic distance

Report phenotypic distance for C[C@@H](O[C@H]1OCCN(Cc2n[nH]c(=O)[nH]2)[C@H]1c1ccc(F)cc1)c1cc(C(F)(F)F)cc(C(F)(F)F)c1 [Aprepitant] tested on E13.
0.787

GET /values?readout=phenotypic distance&system=E13&item= CCCCCCC[N+](CC)(CC)CCCCc1ccc(Cl)cc1 [Clofilium tosylate]
0.802

# returns recorded phenotypic distance (system: E13) for COc1ccc(/C=C\c2cc(OC)c(OC)c(OC)c2)cc1OP(=O)(O)O [Fosbretabulin Disodium]
1.22

Query the reported phenotypic distance for E13; item: CN1C(=O)CC(c2ccccc2)C1=O (stereo not drawn) [Phensuximide]
1.82

E13 / phenotypic distance / COC(=O)Nc1nc2cc(C(=O)c3ccccc3)ccc2[nH]1 [Mebendazole] : value?
1.43

Record lookup: for E13, what phenotypic distance belongs to C/C=C1\NC(=O)[C@H]2CSSCC/C=C/[C@H](CC(=O)N[C@H](C(C)C)C(=O)N2)OC(=O)[C@H](C(C)C)NC1=O [Romidepsin] ?
4.99

// fetch E13 phenotypic distance for COc1ccc(C(=O)CC(=O)c2ccc(C(C)(C)C)cc2)cc1 [Avobenzone]
1.11

Give the reported phenotypic distance for Cc1ccc(S(=O)(=O)/C=C/C#N)cc1 [Bay 11-7082] (system: E13).
0.928

Form: Entry = CNCCc1ccccn1 [Betahistine mesylate] | System = E13 | phenotypic distance = ____
0.901

// fetch E13 phenotypic distance for CCC(C)n1ncn(-c2ccc(N3CCN(c4ccc(OCC5COC(Cn6cncn6)(c6ccc(Cl)cc6Cl)O5)cc4)CC3)cc2)c1=O (stereo not drawn) [Itraconazole]
0.693

What reported phenotypic distance corresponds to Nc1ncn(C2OC(CO)C(O)C2O)c(=O)n1 (stereo not drawn) [Azacytidine-5] on E13?
0.774

Return phenotypic distance measured with E13 given this compound: C[C@@H](Oc1cc(-c2cnn(C3CCNCC3)c2)cnc1N)c1c(Cl)ccc(F)c1Cl [Crizotinib]
0.499

Hi! What's the reported phenotypic distance for Cc1cc(C)c(CN2CCc3c(Cl)cc(-c4c(C)noc4C)c(Cl)c3C2=O)c(=O)[nH]1 on E13?
0.55

Give phenotypic distance (E13) of the following compound: O=C(/C=C/c1cccnc1)NCCCCC1CCN(C(=O)c2ccccc2)CC1 [Daporinad]
1.28

Query for E13: what phenotypic distance does the record show for CC(C)NCC(O)COc1cccc2ccccc12 (stereo not drawn) [Propranolol hydrochloride] ?
0.572

I'm curious: which phenotypic distance was measured for C[C@@]12C(=O)OC(=O)[C@]1(C)[C@H]1CC[C@@H]2O1 [Cantharidin] tested on E13?
0.99

Which measured phenotypic distance belongs to CN(C)C(=O)Oc1ccc[n+](C)c1 [Pyridostigmine iodide] , tested on E13?;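 note: cell Painting imaging in 384-well plates, CellProfiler features reduced to at least 20 principal components, Euclidean distance versus same-plate DMSO vehicle wells (0.1% v/v), median over six images per well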
0.653

Can you look up phenotypic distance on E13 for CC(C)(Oc1ccc(C2CC2(Cl)Cl)cc1)C(=O)O (stereo not drawn) [Ciprofibrate] ?
0.888

###

Kindly state surviving fraction for each of the entries shown.
- System: E57 (patient-derived glioblastoma stem cells of mesenchymal subtype);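 note: nuclei counted by high-content imaging of Hoechst-stained cells in laminin-coated 384-well plates, relative to 0.1% DMSO vehicle wells, with staurosporine as cell-death control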
- Test description: surviving fraction (nuclei count normalised to DMSO); higher = more cells surviving (less toxic)
- Condition summary: 111.1 nM; exposure time: 72 h
Structures can show the parent of a compound that is named as a salt.
The response must contain the number and no unit.

Recorded surviving fraction for Cc1cc(C(C)(C)CC(C)(C)C)ccc1OCCOCC[N+](C)(C)Cc1ccccc1 [Methyl benzethonium chloride] , please?
0.952

Would you mind telling me what surviving fraction value was observed for C/C(=C\c1csc(C)n1)[C@@H]1C[C@@H]2O[C@]2(C)CCC[C@H](C)[C@H](O)[C@@H](C)C(=O)C(C)(C)[C@@H](O)CC(=O)N1 [Ixabepilone] ?
0.0952

Name the recorded surviving fraction for CCC(C)n1ncn(-c2ccc(N3CCN(c4ccc(OCC5COC(Cn6cncn6)(c6ccc(Cl)cc6Cl)O5)cc4)CC3)cc2)c1=O (stereo not drawn) [Itraconazole] .
1.08

Requested field: surviving fraction. Item: CC(C)NCC(O)COc1cccc2ccccc12 (stereo not drawn) [Propranolol hydrochloride]
1.14

Which surviving fraction value is on record for O=C(Oc1cccc2cccnc12)c1ccccc1 [Benzoxiquine] ?
1.01

Can you look up the measured surviving fraction of O=C1c2c(O)ccc(O)c2C(=O)c2c(NCCNCCO)ccc(NCCNCCO)c21 [Mitoxantrone] for me?
0.165

Would you kindly share the measured surviving fraction for C#C[C@]1(O)CC[C@H]2[C@@H]3CCc4cc(OC5CCCC5)ccc4[C@H]3CC[C@@]21C [Quinestrol] ?
1.06

// query surviving fraction value for entry C[C@@H]1CN([C@H]2CC[C@](C#N)(c3ccc(F)cc3)CC2)CC[C@]1(C(=O)O)c1ccccc1 [Levocabastine hydrochloride]
1.11
